Source: PubChem BioAssay AID1918958

Test system: NCI-H196 complex spheroid viability
Assay: Anticancer human tumor NCI-H196 cell line growth inhibition [LSD1]; active means viability on the fitted dose curve at most 10% of control; inactive means the rest;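 further: spheroids exposed to agents for 7 days before readout; 100% = DMSO vehicle control viability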
Conditions: second compound 0.1 µM; first compound 0.1 µM
Possible outcomes: 1 (yes) for active, 0 (no) for inactive

COMPOUND	CLASS_LABEL
CC(C)CC(NC(=O)CNC(=O)c1cc(Cl)ccc1Cl)B1OC(=O)CC(CC(=O)O)(C(=O)O)O1 (configuration not stated) + NC1CCC(NC2CC2c2ccccc2)CC1	1 (yes)
COc1cc(Nc2ncc3c(n2)-c2ccc(Cl)cc2C(c2c(F)cccc2OC)=NC3)ccc1C(=O)O + NC1CC1c1ccc(-c2cccc(O)c2)cc1	0 (no)
CC1COCCN1c1cc(-c2ccnn2C)c2ccnc(-c3ccn[nH]3)c2n1 (configuration not stated) + NC1CC1c1ccc(-c2cccc(O)c2)cc1	0 (no)
CC1(C)CCC(CN2CCN(c3ccc(C(=O)NS(=O)(=O)c4ccc(NCC5CCOCC5)c([N+](=O)[O-])c4)c(Oc4cnc5[nH]ccc5c4)c3)CC2)=C(c2ccc(Cl)cc2)C1 + NC1CCC(NC2CC2c2ccccc2)CC1	0 (no)
CC(C)CC(NC(=O)C(Cc1ccccc1)NC(=O)c1cnccn1)B(O)O (configuration not stated) + NC1CCC(NC2CC2c2ccccc2)CC1	1 (yes)
Nc1ncn(C2CC(O)C(CO)O2)c(=O)n1 (configuration not stated) + NC1CC1c1ccc(-c2cccc(O)c2)cc1	0 (no)
O=C(c1cc(Cc2n[nH]c(=O)c3ccccc23)ccc1F)N1CCN(C(=O)C2CC2)CC1 + NC1CCC(NC2CC2c2ccccc2)CC1	0 (no)
CC(C)c1c(-c2ccccc2)nc2c(C#N)c[nH]n2c1=O + NC1CCC(NC2CC2c2ccccc2)CC1	0 (no)
CC(C)c1c(-c2ccccc2)nc2c(C#N)c[nH]n2c1=O + NC1CC1c1ccc(-c2cccc(O)c2)cc1	0 (no)
CC1COCCN1c1cc(C2(S(C)(=N)=O)CC2)nc(-c2ccnc3[nH]ccc23)n1 (configuration not stated) + NC1CC1c1ccc(-c2cccc(O)c2)cc1	0 (no)
COc1ccc([C@@H](O)c2cc(-c3ncnc4cc(N5CCOCC5)ccc34)c(F)cc2Cl)nn1 + NC1CC1c1ccc(-c2cccc(O)c2)cc1	0 (no)
CC(C)CC(NC(=O)CNC(=O)c1cc(Cl)ccc1Cl)B1OC(=O)CC(CC(=O)O)(C(=O)O)O1 (configuration not stated) + NC1CC1c1ccc(-c2cccc(O)c2)cc1	1 (yes)
